ASSAY_TEXT: CCTE_Shafer_MEA_acute_burst_number: CCTE's Neural Acute Assay for Single-Electrode Bursts, Shafer Lab (AID 2284013)
The source made the active and inactive calls. Rule for the calls: active = hit-call score of the fitted dose curve at least 0.9, where 1 is the maximum; inactive = score below 0.9.
Returns: one label drawn from true = active, false = inactive

[
  {
    "COMPOUND": "O=[N+]([O-])c1cc(S(=O)(=O)Nc2ccccc2)ccc1Nc1ccccc1",
    "QUALITATIVE_LABEL": "false"
  }
]

Can you look up the reported call for CN(C)Cc1cc(C(C)(C)C)c(O)c(C(C)(C)C)c1 for me?
false

Check the results log: what was the call for CNCCC(Oc1ccc(C(F)(F)F)cc1)c1ccccc1 (stereo not given) ?
true

Which outcome did this test record for the compound NC(N)=Nc1nc(CSCCC(N)=NS(N)(=O)=O)cs1 ?
false

Outcome? C1CN(CCOCCN2CCOCC2)CCO1
false

----------
ASSAY_TEXT: TOX21_p53_BLA_p4_viability: Viability Assessment in the Tox21 HCT-116 p53 Agonism Beta-lactamase Assay, Phase 4 (AID 2283597);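 note: hits lower the luminescence signal meaning cytotoxicity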
Inconclusive results are not listed. Active and inactive are the calls of the source. The calls were made as follows: active = hit-call score of the fitted dose curve at least 0.9, where 1 is the maximum; inconclusive = response in the unintended direction; inactive = score below 0.9.
# output must be one of active, inactive

[
  {
    "COMPOUND": "CCN(Cc1cccc(S(=O)(=O)O)c1)c1ccccc1",
    "QUALITATIVE_LABEL": "inactive"
  }
]

Please state the recorded outcome for this compound: COc1cc(C(=O)N2CCOCC2)cc(OC)c1OC
inactive

For CC1(COc2ccc(CC3SC(=O)NC3=O)cc2)CCCCC1 (stereo not given) , which call appears in the assay record?
active

In this assay, the call recorded for Cc1ccc(O)c([N+](=O)[O-])c1 was what?
inactive

What outcome does the record of this test show for CCCCC(CC)COC(=O)CS (stereo not given) ?
inactive

I would be grateful if you could indicate the recorded call for CCCC(=O)N1CCCN(c2nc(N)c3cc(OC)c(OC)cc3n2)CC1 .
inactive

In this assay, the call recorded for COc1ccccc1C=CC=O was what?
inactive

Answer briefly: the call reported for CCCCCCCCCCCCCCCC(=O)OC[C@H](COP(=O)([O-])OCC[N+](C)(C)C)OC(=O)CCCCCCCCCCCCCCC in this assay.
inactive

Please let me know the test result on file for CC(C)c1nc(N(C)S(C)(=O)=O)nc(-c2ccc(F)cc2)c1/C=C/C(O)CC(O)CC(=O)O (stereo not given) .
inactive

Call for entry COc1c(C)c2c(c(O)c1C/C=C(\C)CCC(=O)O)C(=O)OC2 :
active

----------
ASSAY_TEXT: TOX21_p53_BLA_p2_viability: Viability Assessment in the Tox21 HCT-116 p53 Agonism Beta-lactamase Assay, Phase 2 (AID 2283591);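 note: compound exposure lasted 16 h at 37 °C; actives lower the ATP signal meaning cytotoxicity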
Results filed as inconclusive are left out. Calls of active or inactive are those of the source. Rule for the calls: active = hit-call score of the fitted dose curve at least 0.9, where 1 is the maximum; inconclusive = response in the unintended direction; inactive = score below 0.9.
Write down the outcome that applies. Available outcomes: active, inactive

[
  {
    "COMPOUND": "C[C@@H]1CCC2[C@@H](C)[C@@H](O)O[C@@H]3O[C@@]4(C)CC[C@@H]1[C@@]23OO4 (stereo not given in full)",
    "QUALITATIVE_LABEL": "inactive"
  },
  {
    "COMPOUND": "NC(N)=NC(=O)Cc1c(Cl)cccc1Cl",
    "QUALITATIVE_LABEL": "inactive"
  }
]

# outcome recorded in this test, key = C[C@@H]1C[C@H]2[C@@H]3C[C@H](F)C4=CC(=O)C(Cl)=C[C@]4(C)[C@@]3(F)[C@@H](O)C[C@]2(C)[C@@]1(O)C(=O)CO
inactive

Outcome logged for O=C(O)COC(=O)Cc1ccccc1Nc1c(Cl)cccc1Cl in this assay:
inactive

Assay outcome for CCCCCCOc1ccc(C(=N)N(CCCC)CCCC)c2ccccc12 : what was it?
active

Per the assay record, what outcome was assigned to O=C(OOC(=O)c1ccccc1)c1ccccc1 ?
inactive

----------
System: Thyroperoxidase (TPO), gene 54314
ASSAY_TEXT: CCTE_Simmons_AUR_rTPO: CCTE's Amplex UltraRed Assay for Thyroperoxidase (TPO) Inhibition, Simmons Lab (AID 2283662)
The source made the active and inactive calls. Rule for the calls: active = hit-call score of the fitted dose curve at least 0.9, where 1 is the maximum; inconclusive = response in the unintended direction; inactive = score below 0.9.
Could you please pick one outcome from this set? 1 = active, -1 = inactive

The examples below pair each entry with its known result.
[
  {
    "STRUCTURE": "CN(C)c1ccc(C(c2ccccc2)c2ccc(N(C)C)cc2)cc1",
    "QUALITATIVE_LABEL": 1
  },
  {
    "STRUCTURE": "Nc1ccc(S(=O)(=O)Nc2cnc3ccccc3n2)cc1",
    "QUALITATIVE_LABEL": 1
  }
]

Short answer needed: outcome of this test for Cc1cc(C)c(S(=O)(=O)O)cc1N=Nc1cc(S(=O)(=O)O)c2ccccc2c1O ?
1

Test call, this compound: COc1ccc(C(=O)c2ccccc2O)c(O)c1
-1

Per the records of this test, what outcome belongs to Oc1cccc2ccccc12 ?
1

----------
ASSAY_TEXT: TOX21_p53_BLA_p4_viability: Viability Assessment in the Tox21 HCT-116 p53 Agonism Beta-lactamase Assay, Phase 4 (AID 2283597);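 note: hits lower the luminescence signal meaning cytotoxicity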
Description: TOX21_p53_BLA_p4 is a cell-based, single-readout assay that uses HCT116, a human intestinal cell line, […] in a 1536-well plate.TOX21_p53_BLA_p4_viability is an assay readout measuring cellular ATP content and detected with CellTiter-Glo Luciferase-coupled ATP quantitation.TOX21_p53_BLA_p4_viability used a type of viability reporter where loss-of-signal activity can be used to understand changes in the cell viability. […]
Records with an inconclusive call do not appear. Activity calls are given as the source filed them. The calls were made as follows: active = hit-call score of the fitted dose curve at least 0.9, where 1 is the maximum; inconclusive = response in the unintended direction; inactive = score below 0.9.
Allowed answers: active, inactive

Answered examples (4):
[
  {
    "MOLECULE": "CCn1cc(C(=O)O)c(=O)c2cc(F)c(N3CCN(C)CC3)cc21",
    "QUALITATIVE_LABEL": "inactive"
  },
  {
    "MOLECULE": "COc1ccc2c(c1)c(CC(=O)OCC(=O)O)c(C)n2C(=O)c1ccc(Cl)cc1",
    "QUALITATIVE_LABEL": "inactive"
  },
  {
    "MOLECULE": "CCCC(C(=O)OCCN(CC)CC)(c1ccccc1)c1ccccc1",
    "QUALITATIVE_LABEL": "active"
  },
  {
    "MOLECULE": "CC(NCCC(c1ccccc1)c1ccccc1)c1ccccc1 (stereo not given)",
    "QUALITATIVE_LABEL": "active"
  }
]

Turning to the following molecule.
What was the test verdict on O=[N+]([O-])c1ccc2[nH]ncc2c1 ?
inactive

----------
ASSAYED_TARGET: Cellular tumor antigen p53 (Homo sapiens) (UniProt P04637)
Sequence (P04637 whole entry, looked up): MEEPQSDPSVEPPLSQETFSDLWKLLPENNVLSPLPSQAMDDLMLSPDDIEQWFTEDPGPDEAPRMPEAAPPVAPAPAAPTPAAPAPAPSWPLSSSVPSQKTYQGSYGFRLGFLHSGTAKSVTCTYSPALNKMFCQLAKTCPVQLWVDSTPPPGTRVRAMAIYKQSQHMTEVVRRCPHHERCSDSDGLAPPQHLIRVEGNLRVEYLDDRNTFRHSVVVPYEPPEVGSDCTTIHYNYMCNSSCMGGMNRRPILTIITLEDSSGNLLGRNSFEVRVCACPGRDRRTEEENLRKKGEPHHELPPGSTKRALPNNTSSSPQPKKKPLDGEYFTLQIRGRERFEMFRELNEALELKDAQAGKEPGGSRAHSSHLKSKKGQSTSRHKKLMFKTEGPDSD
ASSAY_TEXT: TOX21_p53_BLA_p5_ratio: Tox21 HCT-116 p53 Agonism Beta-lactamase Assay, Ratio, Phase 5 (AID 2283599)
Records with an inconclusive call do not appear. The source made the active and inactive calls. How the source made its calls: active means hit-call score of the fitted dose curve at least 0.9, where 1 is the maximum; inconclusive means response in the unintended direction; inactive means score below 0.9.
PROPERTY_NAME: AC50

[
  {
    "STRUCTURE": "O=C(O)c1cc(N=Nc2ccc([N+](=O)[O-])cc2)ccc1O",
    "PROPERTY_NAME": "AC50",
    "VAL": "inactive"
  },
  {
    "STRUCTURE": "CN(C)CCCN1c2ccccc2C(C)(C)c2ccccc21",
    "PROPERTY_NAME": "AC50",
    "VAL": "inactive"
  },
  {
    "STRUCTURE": "C[n+]1cc2c3c(ccc2c2ccc4cc5c(cc4c21)OCO5)OCO3",
    "PROPERTY_NAME": "AC50",
    "VAL": "5.66 µM (active)"
  },
  {
    "STRUCTURE": "O=c1[nH]cnc2ccccc12",
    "PROPERTY_NAME": "AC50",
    "VAL": "inactive"
  }
]

----------
ASSAYED_TARGET: Myc proto-oncogene protein (Homo sapiens) (UniProt P01106)
Sequence (P01106 whole entry, looked up): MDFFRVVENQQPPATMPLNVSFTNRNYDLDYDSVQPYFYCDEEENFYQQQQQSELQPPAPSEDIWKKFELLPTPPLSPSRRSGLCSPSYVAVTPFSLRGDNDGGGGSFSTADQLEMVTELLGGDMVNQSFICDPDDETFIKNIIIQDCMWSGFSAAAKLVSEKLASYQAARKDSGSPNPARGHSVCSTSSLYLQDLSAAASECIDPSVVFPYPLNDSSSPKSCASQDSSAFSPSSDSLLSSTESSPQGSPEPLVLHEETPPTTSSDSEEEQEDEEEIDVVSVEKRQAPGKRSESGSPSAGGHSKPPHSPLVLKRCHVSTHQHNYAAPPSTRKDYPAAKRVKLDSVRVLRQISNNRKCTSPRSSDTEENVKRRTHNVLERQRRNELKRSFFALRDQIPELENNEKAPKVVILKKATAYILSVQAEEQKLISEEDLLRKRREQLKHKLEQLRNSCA
ASSAY_TEXT: ATG_Myc_CIS: Attagene CIS-FACTORIAL HepG2 Assay for human Myelocytomatosis (Myc) Proto-Oncogene Transcription Factor (AID 2282990)
RUN_PARAMETERS: HepG2, Attagene cis-reporter transcription factor activity; actives raise or lower the signal
Active and inactive are the calls of the source. The calls were made as follows: active = hit-call score of the fitted dose curve at least 0.9, where 1 is the maximum; inactive = score below 0.9.
Give your call using only these classes: T (active), F (inactive)

For orientation, consider the following solved cases.
[
  {
    "COMPOUND": "CCCCCC[C@@H](O)C/C=C\\CCCCCCCC(=O)O",
    "QUALITATIVE_LABEL": "F"
  },
  {
    "COMPOUND": "Brc1ccc(Oc2ccc(Br)cc2)cc1",
    "QUALITATIVE_LABEL": "F"
  },
  {
    "COMPOUND": "NC(=O)c1ccc([N+](=O)[O-])cc1Cl",
    "QUALITATIVE_LABEL": "F"
  }
]

Would you kindly look at the next entry?
What is the recorded call for this compound in the test? CN(C)CCC(c1ccc(Cl)cc1)c1ccccn1 (stereo not drawn)
F
